From: ChEMBL document CHEMBL1201862

Quick reference for GI50 among some compounds
Test system: NCI-H23
Assay: NCI tumour cell line growth inhibition, 48 h
Active and inactive are the calls of the source. Cut-off read from the data, not from the text of the source: active = GI50 up to about 1.1 µM and inactive = higher.

As a guide, the following entries are already answered.
# query: GI50 of entry CC(CC[C@@]1(O)OC2C[C@H]3[C@@H]4CC[C@H]5CC(OC6OC(CO)C(OC7OC(CO)C(O)C(OC8OCC(O)C(O)C8O)C7OC7OC(CO)C(O)C(O)C7O)C(O)C6O)[C@H](O)CC5(C)[C@H]4CCC3(C)C2[C@@H]1C)COC1OC(CO)C(O)C(O)C1O (stereo partly drawn)
2.8 µM (inactive)

# query: GI50 of entry COc1cc2c3cc1Oc1c(OC)c(OC)cc4c1[C@@H](Cc1ccc(O)c(c1)Oc1ccc(cc1)C[C@@H]3N(C)CC2)N(C)CC4.c1ccccc1
24.1 µM (inactive)

# query: GI50 of entry C=CCC(C(=O)OC)C1(C(=O)OC)c2[nH]c3ccccc3c2CCN1Cc1ccccc1 (stereo not drawn)
> 100 µM (inactive)

# query: GI50 of entry CC(C)CCNC(=O)c1ccc(CNC(=O)/C=C/c2cccc(Oc3ccccc3)c2)cc1
34.3 µM (inactive)

# query: GI50 of entry O=C(O)c1ccccc1/C=C1\Cc2ccccc2C1=O
> 100 µM (inactive)

# query: GI50 of entry NNC(=O)c1cc(Cl)ccc1NC(=O)C12CC3CC(CC(C3)C1)C2
37.6 µM (inactive)

# query: GI50 of entry CC1(C)CC(N2CCN(C3CC(C)(C)NC(C)(C)C3)CC2)CC(C)(C)N1
> 100 µM (inactive)

New cases:
# query: GI50 of entry COc1ccc(C2CC(c3c(O)ccc4ccccc34)=NN2)cc1OC (stereo not drawn)
3.22 µM (inactive)
